- measurement.target: Axl (Homo sapiens (Human))
- assay.procedure: biochemical
Each entry below carries its reported IC50.
Return type: number; implicit unit nM.

Reference set (2 entries):
CCCCNc1ncc(-c2ccc(CCN3CCN(C)CC3)cn2)c(N[C@H]2CC[C@H](O)CC2)n1 [UNC2795A] = 211
CCCCNc1ncc(-c2ccc(C#CCN3CCN(C)CC3)cn2)c(N[C@H]2CC[C@H](O)CC2)n1 [UNC2793A] = 153

Problem: Would you mind telling me what IC50 value was observed for CCCCNc1ncc(-c2ncc(COCc3ccccc3)s2)c(N[C@H]2CC[C@H](O)CC2)n1 [UNC2863A] ?
Solution: 2610

Problem: What do you have for CCCCNc1ncc(-c2cc(NC(C)(C)C)ncn2)c(N[C@H]2CC[C@H](O)CC2)n1 [UNC3200A] ?
Solution: 480

----------
- measurement.target: UniProt:P30530
- condition.context: read-out: IC50 Axl
observable: log10(IC50) (log10 of the value in nM)
// do not treat as linear: log10 of IC50, unit nM

Problem: Given the entry CCCCNc1ncc(-c2cc(Nc3ccccc3OC)ncn2)c(N[C@H]2CC[C@H](O)CC2)n1 [UNC4272A] , what log10(IC50) was observed with UniProt:P30530?
Solution: 4.09

Problem: What do you have for CCCCNc1ncc(C(=O)NC2CCN(CCCc3ccccc3)CC2)c(N[C@H]2CC[C@H](O)CC2)n1 [UNC2801A] ?
Solution: 2.31

Problem: What do you have for CCCCNc1ncc(-c2ccc(CC3CCN(C)CC3)cn2)c(N[C@H]2CC[C@H](O)CC2)n1 [UNC4337A] ?
Solution: 1.87

----------
- measurement.target: Tyro3 (Homo sapiens (Human), UniProt Q06418)
- Sequence (Q06418 41-890 limits assumed): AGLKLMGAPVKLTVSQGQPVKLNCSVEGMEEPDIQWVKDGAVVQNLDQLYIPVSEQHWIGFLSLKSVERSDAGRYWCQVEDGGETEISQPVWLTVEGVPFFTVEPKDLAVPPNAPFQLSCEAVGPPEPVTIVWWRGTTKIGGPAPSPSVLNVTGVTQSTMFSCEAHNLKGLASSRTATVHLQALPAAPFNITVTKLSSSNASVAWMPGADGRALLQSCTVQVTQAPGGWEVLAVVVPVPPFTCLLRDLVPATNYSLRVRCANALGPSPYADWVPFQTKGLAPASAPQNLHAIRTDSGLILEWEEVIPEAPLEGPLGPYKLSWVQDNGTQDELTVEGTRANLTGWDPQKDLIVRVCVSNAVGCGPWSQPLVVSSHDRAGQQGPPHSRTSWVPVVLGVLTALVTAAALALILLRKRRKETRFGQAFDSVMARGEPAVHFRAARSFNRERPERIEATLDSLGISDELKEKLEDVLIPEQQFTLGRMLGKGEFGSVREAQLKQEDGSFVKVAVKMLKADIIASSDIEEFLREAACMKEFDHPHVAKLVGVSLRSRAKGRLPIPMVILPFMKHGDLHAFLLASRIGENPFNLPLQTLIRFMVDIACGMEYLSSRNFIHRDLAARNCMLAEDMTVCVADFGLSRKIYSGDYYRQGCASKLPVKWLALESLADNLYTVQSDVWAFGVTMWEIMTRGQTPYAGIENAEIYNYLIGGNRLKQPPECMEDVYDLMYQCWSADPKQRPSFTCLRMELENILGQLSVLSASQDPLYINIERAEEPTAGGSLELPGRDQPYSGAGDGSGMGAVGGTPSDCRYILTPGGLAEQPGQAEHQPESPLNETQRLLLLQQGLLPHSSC
- condition.context: read-out: IC50 Tyro3
pIC50: −log10 of the molar value.
Rule: pIC50 of 6 or more gives Met; anything lower gives Not met.

Look over these answered cases.
CCCCNc1ncc(C(=O)NCc2ccc(N3CCOCC3)cc2)c(N[C@H]2CC[C@H](O)CC2)n1 [UNC2804A] = Met
CCCCNc1ncc(-c2cc(Nc3cccc(C(C)C)c3)ncn2)c(N[C@H]2CC[C@H](O)CC2)n1 [UNC4323A] = Met
CCCCNc1ncc(-c2ccc(NC(=O)C3CCCCC3)cn2)c(NC2CCC(O)CC2)n1 (centres unmarked) [UNC2712A] = Met
CCCCNc1ncc(-c2nc(C(N)=O)cs2)c(N[C@H]2CC[C@H](O)CC2)n1 [UNC3136A] = Met
CCCCNc1ncc(-c2cnc(N)c(OC)n2)c(N[C@H]2CC[C@H](O)CC2)n1 [UNC3043A] = Not met

Continue with the next molecule.
Problem: Confirm if pIC50 reported for the molecule CCCCNc1ncc(-c2nccnc2N)c(N[C@H]2CC[C@H](O)CC2)n1 [UNC3119A] is 6 or above.
Solution: Not met

----------
- measurement.target: Tyro3 (Homo sapiens (Human))
- condition.context: read-out: IC50 Tyro3
observable: IC50 (nM)
Return type: number; implicit unit nM.

CCCCNc1ncc(-c2ccc(C3(N4CCOCC4)CCCC3)cn2)c(NC2CCC(O)CC2)n1 (stereo not shown) [UNC3667A] = 7.4

Problem: Would you mind telling me what IC50 value was observed for CCCCNc1ncc(-c2ncc(C)s2)c(N[C@H]2CC[C@H](O)CC2)n1 [UNC3140A] ?
Solution: 322

Problem: What do you have for CCCCNc1ncc(C(=O)NCc2ccc(-n3ccnc3C)cc2)c(N[C@H]2CC[C@H](O)CC2)n1 [UNC3004A] ?
Solution: 272

Problem: What do you have for CCCCNc1ncc(-c2ccc(CC3CCN(C(C)C)CC3)cn2)c(N[C@H]2CC[C@H](O)CC2)n1 [UNC4339A] ?
Solution: 22

----------
- measurement.target: Tyro3 (Homo sapiens (Human))
- condition.context: read-out: IC50 Tyro3
Each entry below carries its reported IC50.
Return type: number; implicit unit nM.

Reference set (7 entries):
CCCCNc1ncc(-c2ccc(NC(=O)C3CCCC3)cn2)c(NC2CCC(O)CC2)n1 (centres unmarked) [UNC2791A] = 416
CCCCNc1ncc(C(=O)NCc2cncnc2)c(N[C@H]2CC[C@H](O)CC2)n1 [UNC4307A] = 217
CCCC1(Nc2ncc(-c3ccc(CN4CCN(C)CC4)cn3)c(NC3CCC(O)CC3)n2)CC1 (centres unmarked) [UNC3668A] = 409
C=CCN1CCC(CNC(=O)c2cnc(NCCCC)nc2N[C@H]2CC[C@H](O)CC2)CC1 [UNC4303A] = 486
CCCCNc1ncc(-c2cc(N)ncn2)c(N[C@H]2CC[C@H](O)CC2)n1 [UNC3072A] = 43
CCCCNc1ncc(C(=O)NCc2ccc(-n3cccc3)cc2)c(N[C@H]2CC[C@H](O)CC2)n1 [UNC2880A] = 559
CCCCNc1ncc(C(=O)NCc2ccc(-c3cccc(OC)c3)nc2)c(N[C@H]2CC[C@H](O)CC2)n1 [UNC4246A] = 244

Now take the following molecule into account.
Problem: Would you mind telling me what IC50 value was observed for CCCCNc1ncc(-c2ccc(CN3CCN[C@H](C)C3)cn2)c(NC2CCC(O)CC2)n1 (some centres unmarked) [UNC4113A] ?
Solution: 18

----------
- measurement.target: Tyro3 (Homo sapiens (Human))
- condition.context: read-out: IC50 Tyro3
observable: log10 IC50 (log10 of the value in µM)
// do not treat as linear: log10 of IC50, unit µM

Reference set (5 entries):
CCCCNc1ncc(C(=O)NCc2ccc(C3=CCCCC3)nc2)c(N[C@H]2CC[C@H](O)CC2)n1 [UNC4256A] = -0.47
CCCCNc1ncc(-c2ccc(N3CCN(C(=O)OC(C)(C)C)CC3)nn2)c(N[C@H]2CC[C@H](O)CC2)n1 [UNC3071A] = -0.53
CCCCNc1ncc(-c2ccc(C3=CCC(CN(C)C)CC3)cn2)c(N[C@H]2CC[C@H](O)CC2)n1 (some centres unmarked) [UNC4387A] = -0.31
CCCCNc1ncc(-c2ncc(C(N)=O)s2)c(N[C@H]2CC[C@H](O)CC2)n1 [UNC3134A] = -1.21
CCCCNc1ncc(-c2cc(Nc3cccc([N+](=O)[O-])c3)ncn2)c(N[C@H]2CC[C@H](O)CC2)n1 [UNC4322A] = -0.05

Problem: Would you mind telling me what log10 IC50 value was observed for CCCCNc1ncc(-c2ccc(C3(N4CCOCC4)CCC3)cn2)c(NC2CCC(O)CC2)n1 (centres unmarked) [UNC3666A] ?
Solution: -1.96

Problem: What do you have for CCCCNc1ncc(C(=O)NCc2cncs2)c(N[C@H]2CC[C@H](O)CC2)n1 [UNC4344A] ?
Solution: -0.56

Problem: What do you have for CCCCNc1ncc(C(=O)NCc2ccc(-n3cnc(C)c3)cc2)c(N[C@H]2CC[C@H](O)CC2)n1 [UNC2956A] ?
Solution: -0.70

----------
Each entry below carries its reported IC50.
- measurement.target: Tyro3 (Homo sapiens (Human))
- condition.context: read-out: IC50 Tyro3
Return type: number; implicit unit µM.

CCCCNc1ncc(-c2cncc(N3CCCC3)n2)c(N[C@H]2CC[C@H](O)CC2)n1 [UNC3115A] = 0.415
CCCCNc1ncc(-c2ccc(CCN3CCCN(C)CC3)cn2)c(N[C@H]2CC[C@H](O)CC2)n1 [UNC4279A] = 0.042

Problem: Would you mind telling me what IC50 value was observed for CCCCNc1ncc(-c2cc(Nc3ccc(OC)cc3)ncn2)c(N[C@H]2CC[C@H](O)CC2)n1 [UNC4269A] ?
Solution: 0.234

Problem: What do you have for CCCCNc1ncc(C(=O)NC2CCN(Cc3ccc(N4CCOCC4)cc3)CC2)c(N[C@H]2CC[C@H](O)CC2)n1 [UNC2918A] ?
Solution: 0.145

----------
- measurement.target: Axl (Homo sapiens (Human), UniProt P30530)
- Sequence (P30530 26-894 limits assumed): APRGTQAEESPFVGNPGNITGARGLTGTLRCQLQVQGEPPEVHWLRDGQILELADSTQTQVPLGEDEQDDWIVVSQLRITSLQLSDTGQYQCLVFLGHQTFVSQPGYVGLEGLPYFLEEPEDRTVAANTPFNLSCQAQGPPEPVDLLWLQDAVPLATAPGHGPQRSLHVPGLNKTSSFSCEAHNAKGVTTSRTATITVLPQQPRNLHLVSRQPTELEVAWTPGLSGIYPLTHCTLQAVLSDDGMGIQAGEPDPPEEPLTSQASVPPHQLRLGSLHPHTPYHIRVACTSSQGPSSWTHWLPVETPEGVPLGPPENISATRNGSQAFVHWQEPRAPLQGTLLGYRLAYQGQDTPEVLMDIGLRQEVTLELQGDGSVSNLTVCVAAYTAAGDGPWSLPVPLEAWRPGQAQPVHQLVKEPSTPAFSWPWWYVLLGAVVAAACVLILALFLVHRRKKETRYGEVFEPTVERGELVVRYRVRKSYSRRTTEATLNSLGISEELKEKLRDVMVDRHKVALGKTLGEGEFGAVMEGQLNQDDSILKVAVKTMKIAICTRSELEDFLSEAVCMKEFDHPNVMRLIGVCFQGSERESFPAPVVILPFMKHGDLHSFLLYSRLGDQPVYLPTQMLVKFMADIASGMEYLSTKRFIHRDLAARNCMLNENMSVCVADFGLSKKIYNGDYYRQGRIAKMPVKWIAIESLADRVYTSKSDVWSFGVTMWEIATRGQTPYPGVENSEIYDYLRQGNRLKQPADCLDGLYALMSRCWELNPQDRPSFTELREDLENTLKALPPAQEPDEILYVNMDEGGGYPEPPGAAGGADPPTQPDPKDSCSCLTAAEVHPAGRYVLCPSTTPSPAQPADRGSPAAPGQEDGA
- condition.context: read-out: IC50 Axl
The label satisfied is reserved for IC50 strictly under 200 nM; not satisfied covers values equal to or above it.

Problem: Here's an entry: CCCCNc1ncc(-c2nc(CO)cs2)c(N[C@H]2CC[C@H](O)CC2)n1 [UNC3135A] . Is its IC50 below 200 nM?
Solution: not satisfied

Problem: What do you have for OCCCCNc1ncc(-c2nccs2)c(N[C@H]2CC[C@H](O)CC2)n1 [UNC3146A] ?
Solution: not satisfied

Problem: What do you have for CCCCNc1ncc(C(=O)NCc2ccc(N3CCCC3)cc2)c(N[C@H]2CC[C@H](O)CC2)n1 [UNC2886A] ?
Solution: not satisfied

----------
Each entry below carries its reported IC50.
- measurement.target: Tyro3 (Homo sapiens (Human), UniProt Q06418)
- condition.context: read-out: IC50 Tyro3
Return type: number; implicit unit nM.

Reference set (3 entries):
CCCCNc1ncc(-c2ccc(C=C3CCN(C(C)C)CC3)cn2)c(N[C@H]2CC[C@H](O)CC2)n1 [UNC4340A] = 8.5
CCCCNc1ncc(C(=O)NCC2CCCCC2)c(N[C@H]2CC[C@H](O)CC2)n1 [UNC2603A] = 506
CCCCNc1ncc(C(=O)Nc2ccc(CCN3CCOCC3)cc2)c(N[C@H]2CC[C@H](O)CC2)n1 [UNC2805A] = 184

Now take the following compound into account.
Problem: Would you mind telling me what IC50 value was observed for CCCCNc1ncc(C(=O)NCCCN2CCOCC2)c(NCCCC)n1 [UNC1840A] ?
Solution: 4640

Data provenance is patent US9649309B2.
